Molecular target: recombinant homotrimeric HA, A/Japan/305/57 H2N2 (Influenza A virus A/Japan/305/57 (H2N2))
Assay: trimeric HA microarray, transfection set 2
Settings: remark: other sources report otherwise
Reported Trimeric HA Binding RLU values for the following binders.
Write the answer as a number in RLU, unit excluded.

Worked cases, Trimeric HA Binding RLU given:
binder	observable	result.number
TCN-523 (5248_A17) (antibody, V domains shown) VH: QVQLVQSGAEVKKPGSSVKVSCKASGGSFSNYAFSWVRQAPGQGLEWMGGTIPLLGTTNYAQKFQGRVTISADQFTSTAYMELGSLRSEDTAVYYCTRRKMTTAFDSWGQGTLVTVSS VL: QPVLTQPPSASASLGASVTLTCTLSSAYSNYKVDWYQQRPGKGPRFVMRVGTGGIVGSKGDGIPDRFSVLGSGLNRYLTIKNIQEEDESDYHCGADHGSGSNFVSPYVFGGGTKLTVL	Trimeric HA Binding RLU	882
TCN-527 (5086_C06) (antibody, V domains shown) VH: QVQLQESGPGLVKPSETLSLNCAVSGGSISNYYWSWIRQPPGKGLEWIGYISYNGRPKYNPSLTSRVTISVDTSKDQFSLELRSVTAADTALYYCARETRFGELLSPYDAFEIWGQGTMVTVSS VL: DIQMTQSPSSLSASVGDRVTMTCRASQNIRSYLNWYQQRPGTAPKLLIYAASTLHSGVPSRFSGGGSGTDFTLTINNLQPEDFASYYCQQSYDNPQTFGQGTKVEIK	Trimeric HA Binding RLU	20800
TCN-528 (5087_P17) (antibody, V domains shown) VH: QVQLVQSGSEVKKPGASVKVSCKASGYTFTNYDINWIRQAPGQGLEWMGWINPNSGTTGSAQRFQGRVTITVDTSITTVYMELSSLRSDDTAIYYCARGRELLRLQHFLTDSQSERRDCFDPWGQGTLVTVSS VL: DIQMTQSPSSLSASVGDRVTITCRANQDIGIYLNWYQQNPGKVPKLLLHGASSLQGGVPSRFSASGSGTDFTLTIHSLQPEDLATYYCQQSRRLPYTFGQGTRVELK	Trimeric HA Binding RLU	23100
TCN-526 (5084_C17) (antibody, V domains shown) VH: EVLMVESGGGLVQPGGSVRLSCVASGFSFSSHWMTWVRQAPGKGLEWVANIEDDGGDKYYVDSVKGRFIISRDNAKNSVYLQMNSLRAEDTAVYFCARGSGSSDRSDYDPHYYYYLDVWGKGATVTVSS VL: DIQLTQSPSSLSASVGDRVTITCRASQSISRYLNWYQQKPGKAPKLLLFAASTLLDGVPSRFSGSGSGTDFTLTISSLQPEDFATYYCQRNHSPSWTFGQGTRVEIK	Trimeric HA Binding RLU	3590
TCN-563 (5237_B21) (antibody, V domains shown) VH: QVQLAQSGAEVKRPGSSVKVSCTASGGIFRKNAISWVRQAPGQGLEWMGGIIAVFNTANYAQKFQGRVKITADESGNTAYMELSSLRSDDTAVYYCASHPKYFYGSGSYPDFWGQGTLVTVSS VL: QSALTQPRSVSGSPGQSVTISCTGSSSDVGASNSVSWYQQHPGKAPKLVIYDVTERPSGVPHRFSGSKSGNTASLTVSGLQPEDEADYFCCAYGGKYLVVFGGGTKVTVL	Trimeric HA Binding RLU	11200

With those in mind, consider the next binder.
// lookup Trimeric HA Binding RLU for TCN-504 (3251_K17) (antibody, V domains shown) VH: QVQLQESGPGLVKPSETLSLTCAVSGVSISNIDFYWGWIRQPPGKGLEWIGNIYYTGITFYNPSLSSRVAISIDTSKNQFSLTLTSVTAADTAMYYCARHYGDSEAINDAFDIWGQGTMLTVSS VL: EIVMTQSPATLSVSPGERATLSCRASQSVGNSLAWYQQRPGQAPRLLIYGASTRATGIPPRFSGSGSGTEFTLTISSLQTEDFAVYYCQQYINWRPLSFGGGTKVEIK 22600
